The reported numbers originate from PubChem BioAssay (NCI).

- assay.comment: NCI Yeast Anticancer Drug Screen. Data for the mec2-1 strain (AID 157)
- applied.conditions: S. cerevisiae mec2-1 strain, at 50.0 µM
About 79,000 compounds went through this panel and 15% of them were active in at least one assay; those are over-represented in the sample as a whole. The source made the active and inactive calls. Cut-off read from the data, not from the text of the source: active = growth inhibition above about 70%; inactive = the rest.
Possible outcomes: active, inactive

> print(dat)
                                    compound  class.assignment
 1  CC1(C(=O)O)C(=O)Oc2c1c1ccccc1c1ccccc21 (stereo unspecified)          inactive
 2  O=[N+]([O-])c1ccc(Oc2cccc3ccccc23)c([N+](=O)[O-])c1          inactive
 3  C1CCN(CCC2CCCCN2)CC1 (stereo unspecified)          inactive
 4                    Clc1ccc(N=C2CCCCC2)cc1          inactive
 5  Nc1[nH]n(-c2ccccc2)c(=O)c1/C=N/C(=S)NC1CCCCC1          inactive
 6     CCCCCCCCCSc1nc2ccc(N=Cc3ccccc3O)cc2s1          inactive
 7                     CC(C)(C)C1=CC(=O)CCC1          inactive
 8           CS(=O)(=O)OC12CC3CC(CC(C3)C1)C2          inactive
 9  C/C(=N\NC(=O)C[N+](C)(C)C)c1sc(-c2cccnc2)nc1C          inactive
10  CS(=O)(=O)C(C#N)c1nc2ccccc2nc1Cl (stereo unspecified)          inactive
11  CCOC(=O)CC[C@@H](NC(=O)c1ccc(NCc2ccc3nc(OC)c(OC)nc3c2)cc1)C(=O)OCC          inactive
12           Cc1nnc2cc(C(=O)O)c3ccccc3n2c1=O          inactive
13             O=C(C[n+]1cccc(Cl)c1)c1ccccc1          inactive
14                     CN(C)CCSc1nc2ccccc2s1          inactive
15  O=C(C1C2C=CC(C2)C1C(=O)N1CCCCC1)N1CCCCC1 (stereo unspecified)          inactive
16  Nc1ccc(CC(N)C(=O)O)cc1 (stereo unspecified)          inactive
17  CCOC(=O)N1C=NC23C(c4ccccc4)C(c4ccccc4)C12C(=O)N(C)C(=O)N3C (stereo unspecified)          inactive
18           C/C(=N/N=C(N)N)c1cnn(C(=N)N)c1C          inactive
19                 COc1ccccc1NC(=O)NC1CCCCC1          inactive
20             Nc1ccc([N+](=O)[O-])c2ccccc12          inactive
21          COC(=O)c1c2cccccc-2c(C(=O)OC)c1N          inactive
22                    NC(=O)c1ccccc1OCC(=O)O          inactive
23  CCN(CC)CCNc1ccc(C)c2sc3ccc(N)cc3c(=O)c12          inactive
24  COc1cccc(C(c2cc3c(cc2O)OCO3)N2CCOCC2)c1O (stereo unspecified)          inactive
25  N#CCc1c(-c2ccccc2)n(S(=O)(=O)c2ccccc2)c2ccccc12          inactive
26  CCc1ccc2c(OC(C)=O)c3ccccc3c(OC(C)=O)c2c1          inactive
27  CC1(c2ccc3cccc(F)c3c2)OC(=O)c2ccccc21 (stereo unspecified)          inactive
28  Nc1nc(N)c(N=Nc2ccccc2[N+](=O)[O-])c(=O)[nH]1          inactive
29  COC(=O)C(=O)C(C(=O)c1cccc2ccccc12)c1nc2n(c1O)C(=N)N=N2 (stereo unspecified)          inactive
30  CCCCCCC1(C)CCC(=O)O1 (stereo unspecified)          inactive
31                        CCN(CC)c1ccc(N)cc1          inactive
32  Cn1c(O)c2c(c1O)C(=Nc1ccccc1)c1ccccc1C2=O            active
33                 CCn1nnc2c(C(N)=O)ncn2c1=O          inactive
34  Nc1nnc(N)c2nc(-c3ccccc3)c(-c3ccccc3)nc12          inactive
35                     Nc1cccc(S(=O)(=O)O)c1          inactive
36                        N/N=C(\NN)c1ccccc1          inactive
37                      Cc1cc2nnnn2c2ccccc12          inactive
38  CC(O)CN(Cc1ccccc1)CC(C)O (stereo unspecified)          inactive
39  O=C1C2=C(c3ccccc31)C(c1ccccc1Cl)N1C(=O)CSC1=N2 (stereo unspecified)          inactive
40  CC(C)(O)C1OCC(C2CCC3(C)C4=CCC5C(C)(C)C(O)CCC5(C)C4CCC23C)CC1O (stereo unspecified)          inactive
41  CCCCC(C=O)(CC)CCC#N (stereo unspecified)          inactive
42                     N#CC1=CNc2ccccc2N=C1N          inactive
43                    O=S1c2ccccc2Sc2ccccc21          inactive
44     C/C(=N/S(=O)(=O)c1ccc(C)c(C)c1)OC(C)C          inactive
45  CC1(C)OC2C(COC(=O)c3ccc([N+](=O)[O-])cc3)OC(NC(=O)N(CCCl)N=O)C2O1 (stereo unspecified)          inactive
46  CC(C)(C)/C(CC(=O)CCC(=O)Nc1ccc(Cl)cc1)=N\NC(N)=S          inactive
47                           CCCCC(CC)(CO)CO          inactive
48      Cn1c2ccccc2c2nnc(N/N=C/c3cccnc3)nc21          inactive
49  O=[N+]([O-])c1ccc(C2ON=C(c3ccccc3)N2C23CC4CC(CC(C4)C2)C3)cc1 (stereo unspecified)          inactive
50  CCOC(=O)Cn1c(=O)c(-c2ccccc2NC(C)=O)nc2ccccc21          inactive
51               Nc1cccc2c(S(=O)(=O)O)cccc12          inactive
